Target desc: 5-hydroxytryptamine receptor 1A (Homo sapiens, UniProt P08908)
Sequence (P08908 whole entry): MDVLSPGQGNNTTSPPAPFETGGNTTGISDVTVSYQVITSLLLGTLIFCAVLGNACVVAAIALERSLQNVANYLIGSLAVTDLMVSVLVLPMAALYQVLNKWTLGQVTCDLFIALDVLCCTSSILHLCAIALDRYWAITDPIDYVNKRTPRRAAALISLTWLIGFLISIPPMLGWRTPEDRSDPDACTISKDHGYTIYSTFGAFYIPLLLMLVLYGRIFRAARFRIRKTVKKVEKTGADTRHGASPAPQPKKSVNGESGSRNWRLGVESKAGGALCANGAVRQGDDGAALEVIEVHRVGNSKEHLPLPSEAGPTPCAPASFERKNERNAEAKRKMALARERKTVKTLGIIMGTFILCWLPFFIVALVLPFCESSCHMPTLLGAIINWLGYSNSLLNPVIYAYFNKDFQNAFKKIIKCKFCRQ
Metric name: pIC50
Numbers only, as −log10 of the molar value.

-- ask What value of pIC50 has been reported for the following compound? `CCOc1ccccc1N1CCN(CCCCC(=O)NCc2nc3cc(F)ccc3c(=O)n2-c2ccccc2)CC1`
-- reply 6.30

* * *

Target desc: UniProt P32305
Sequence (P32305 whole entry): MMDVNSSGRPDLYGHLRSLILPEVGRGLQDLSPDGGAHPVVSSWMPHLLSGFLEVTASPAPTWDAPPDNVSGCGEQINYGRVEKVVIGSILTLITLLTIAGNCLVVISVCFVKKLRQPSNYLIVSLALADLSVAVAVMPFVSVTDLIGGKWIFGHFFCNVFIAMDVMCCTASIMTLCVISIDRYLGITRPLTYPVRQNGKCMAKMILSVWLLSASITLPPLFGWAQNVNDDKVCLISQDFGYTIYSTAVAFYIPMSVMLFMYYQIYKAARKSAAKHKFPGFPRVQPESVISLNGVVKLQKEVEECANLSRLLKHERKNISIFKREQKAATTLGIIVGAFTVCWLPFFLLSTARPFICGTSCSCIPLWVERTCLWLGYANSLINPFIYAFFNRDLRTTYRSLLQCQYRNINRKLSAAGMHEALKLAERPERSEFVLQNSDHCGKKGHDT
Measurement description: Displacement of [3H]5-CT from recombinant rat 5-HT7 receptor expressed in HEK293 cells
Metric name: Ki (nM)
One number for each entry, in nM.

-- ask What value of Ki has been reported for the following molecule? Clc1ccc(-c2nn(Cc3ccccc3)c3c2CCNCC3)cc1 [JNJ-18038683 FREE BASE]
-- reply 316

* * *

Target desc: UniProt:P34969
Sequence (P34969 whole entry): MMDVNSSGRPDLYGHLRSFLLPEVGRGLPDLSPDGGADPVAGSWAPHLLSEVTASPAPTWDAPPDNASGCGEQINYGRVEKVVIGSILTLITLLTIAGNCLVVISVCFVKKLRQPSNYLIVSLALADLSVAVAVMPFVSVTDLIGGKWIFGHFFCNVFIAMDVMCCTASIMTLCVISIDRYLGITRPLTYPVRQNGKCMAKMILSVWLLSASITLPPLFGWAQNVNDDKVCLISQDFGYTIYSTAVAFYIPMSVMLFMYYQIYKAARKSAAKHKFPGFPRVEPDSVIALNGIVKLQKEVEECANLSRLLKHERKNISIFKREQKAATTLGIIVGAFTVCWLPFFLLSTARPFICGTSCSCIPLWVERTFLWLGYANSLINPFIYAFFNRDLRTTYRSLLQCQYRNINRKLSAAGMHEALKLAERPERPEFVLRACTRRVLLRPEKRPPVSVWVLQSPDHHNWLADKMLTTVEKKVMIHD
Measurement description: biochemical
Assay type: cell-based
Metric name: Ki

-- ask What value of Ki has been reported for the following compound? `CCN(CC)C(=O)[C@@H]1C=C2c3cccc4[nH]c(Br)c(c34)C[C@H]2N(C)C1`
-- reply 31.6 nM
